System: Nucleic Acid
assay.explanation: Time constant describing the association profile of calf thymus DNA-drug complexes in 0.1 SHE buffer at 20 degree C after 1 min
Format: nucleic-acid assay
observation.type: Time constant (ms)

COc1cc(NS(C)(=O)=O)ccc1Nc1c2ccccc2nc2c(C(=O)NCCN(C)C)cccc12 ... 5
COc1cc(NS(C)(=O)=O)ccc1Nc1c2ccccc2nc2c(C(=O)NCCNCCO)cccc12 ... 3
COc1cc(NS(C)(=O)=O)ccc1Nc1c2ccccc2nc2c(C(=O)NCCO)cccc12 ... 4

(I) COc1cc(NS(C)(=O)=O)ccc1Nc1c2ccccc2nc2c(C(=O)NCCCO)cccc12
(II) COc1cc(NS(C)(=O)=O)ccc1Nc1c2ccccc2nc2c(C(=O)NCC(O)CO)cccc12 (stereo not given)
Exercise: compare I and II ; which one has the greater Time constant? Give the label under which the chosen entry appears. II

###

Tested on: Nucleic Acid
assay.explanation: Free drug extinction coefficient in 0.1 SHE buffer at the concentration of 50 uM; 9.4 x 10 e-3 epcilonfor equilibrium binding to calf thymus DNA
applied.conditions: Bos taurus
observation.type: ε (×10^-3)

COc1cc(NS(C)(=O)=O)ccc1Nc1c2ccccc2nc2c(C(=O)NCC(=O)NCCNCCO)cccc12 ... 12.3
Nc1c2ccccc2nc2ccccc12 ... 10.1
COc1cc(NS(C)(=O)=O)ccc1Nc1c2ccccc2nc2c(C(=O)NCCCN(C)C)cccc12 ... 11.6
CN(C)CCNC(=O)c1cccc2c(N)c3ccccc3nc12 ... 9.4
COc1cc(NS(C)(=O)=O)ccc1Nc1c2ccccc2nc2c(C(=O)NCCNCCO)cccc12 ... 11.6
CNC(=O)c1cccc2c(Nc3ccc(NS(C)(=O)=O)cc3OC)c3ccccc3nc12 ... 11.6
COc1cc(NS(C)(=O)=O)ccc1Nc1c2ccccc2nc2c(C(=O)NCCN(C)C)cccc12 ... 12.9
COc1cc(NS(C)(=O)=O)ccc1Nc1c2ccccc2nc2c(C(=O)NCCO)cccc12 ... 10.4
COc1cc(NS(C)(=O)=O)ccc1Nc1c2ccccc2nc2ccccc12 ... 12.1
COc1cc(NS(C)(=O)=O)ccc1Nc1c2ccccc2nc2c(C(=O)NCC(O)CO)cccc12 (stereo unspecified) ... 10.4
COc1cc(NS(C)(=O)=O)ccc1Nc1c2ccccc2nc2c(C(=O)NCCCO)cccc12 ... 10.9

###

Test system: Nucleic Acid
assay.explanation: Time constant describing the association profile of calf thymus DNA-drug complexes in 0.1 SHE buffer at 20 degree C after 3 min
Assay type: nucleic-acid assay
observation.type: Time constant (ms)

Some molecules with recorded Time constant:
COc1cc(NS(C)(=O)=O)ccc1Nc1c2ccccc2nc2c(C(=O)NCCCN(C)C)cccc12 ... 66
COc1cc(NS(C)(=O)=O)ccc1Nc1c2ccccc2nc2c(C(=O)NCCN(C)C)cccc12 ... 110
COc1cc(NS(C)(=O)=O)ccc1Nc1c2ccccc2nc2c(C(=O)NCCCO)cccc12 ... 95

(A) COc1cc(NS(C)(=O)=O)ccc1Nc1c2ccccc2nc2c(C(=O)NCCO)cccc12
(B) COc1cc(NS(C)(=O)=O)ccc1Nc1c2ccccc2nc2c(C(=O)NCCNCCO)cccc12
Hi team, can someone confirm which has the larger Time constant: A or B ? Thanks. State your choice using its label. A
(A: 100 ms, B: 66 ms)

###

Test system: Nucleic Acid
assay.explanation: Time constant describing the association profile of calf thymus DNA-drug complexes in 0.1 SHE buffer at 20 degree C after 1 min
Type: nucleic-acid assay
observation.type: Time constant (ms)

(a) COc1cc(NS(C)(=O)=O)ccc1Nc1c2ccccc2nc2c(C(=O)NCCCN(C)C)cccc12
(b) COc1cc(NS(C)(=O)=O)ccc1Nc1c2ccccc2nc2c(C(=O)NCC(=O)NCCNCCO)cccc12
Pick one: a or b . Which one has the lower reported Time constant? Identify your selection by its label. a
(a: 3 ms, b: 5 ms)

###

Tested on: Nucleic Acid
assay.explanation: Association constant for binding to poly(dG-dC) DNA in 0.01 SHE buffer, measured by ethidium displacement method
Format: nucleic-acid assay
observation.type: k0 (M⁻¹)

COc1cc(NS(C)(=O)=O)ccc1Nc1c2ccccc2nc2ccccc12 ... 260000
COc1cc(NS(C)(=O)=O)ccc1Nc1c2ccccc2nc2c(C(=O)NCCCO)cccc12 ... 8.12e+06
COc1cc(NS(C)(=O)=O)ccc1Nc1c2ccccc2nc2c(C(=O)NCCNCCO)cccc12 ... 4.9e+07
COc1cc(NS(C)(=O)=O)ccc1Nc1c2ccccc2nc2c(C(=O)NCC(=O)NCCNCCO)cccc12 ... 6.61e+07

(1) COc1cc(NS(C)(=O)=O)ccc1Nc1c2ccccc2nc2c(C(=O)NCCO)cccc12
(2) CNC(=O)c1cccc2c(Nc3ccc(NS(C)(=O)=O)cc3OC)c3ccccc3nc12
(3) COc1cc(NS(C)(=O)=O)ccc1Nc1c2ccccc2nc2c(C(=O)NCC(O)CO)cccc12 (centres undefined)
(4) COc1cc(NS(C)(=O)=O)ccc1Nc1c2ccccc2nc2c(C(=O)NCCCN(C)C)cccc12
(5) COc1cc(NS(C)(=O)=O)ccc1Nc1c2ccccc2nc2c(C(=O)NCCN(C)C)cccc12
# sort list by recorded k0, greatest to least Rank them, then answer with their labels in that order. 5, 3, 4, 1, 2

###

System: Nucleic Acid
assay.explanation: Association constant for binding to poly(dA-dT) DNA in 0.01 SHE buffer, measured by ethidium displacement method
Type: nucleic-acid assay
observation.type: k0 (M⁻¹)

Before answering, review these 2 worked examples.
COc1cc(NS(C)(=O)=O)ccc1Nc1c2ccccc2nc2c(C(=O)NCC(O)CO)cccc12 (centres undefined) ... 2.51e+06
COc1cc(NS(C)(=O)=O)ccc1Nc1c2ccccc2nc2c(C(=O)NCC(=O)NCCNCCO)cccc12 ... 2.82e+07

(a) COc1cc(NS(C)(=O)=O)ccc1Nc1c2ccccc2nc2c(C(=O)NCCNCCO)cccc12
(b) COc1cc(NS(C)(=O)=O)ccc1Nc1c2ccccc2nc2ccccc12
(c) COc1cc(NS(C)(=O)=O)ccc1Nc1c2ccccc2nc2c(C(=O)NCCCO)cccc12
(d) COc1cc(NS(C)(=O)=O)ccc1Nc1c2ccccc2nc2c(C(=O)NCCCN(C)C)cccc12
Arrange these 4 compounds in increasing order of k0. State the ranking by listing the labels in the requested order. b, c, d, a
(b: 290000 M⁻¹, c: 950000 M⁻¹, d: 2.34e+06 M⁻¹, a: 2.19e+07 M⁻¹)

(a) COc1cc(NS(C)(=O)=O)ccc1Nc1c2ccccc2nc2c(C(=O)NCCO)cccc12
(b) CNC(=O)c1cccc2c(Nc3ccc(NS(C)(=O)=O)cc3OC)c3ccccc3nc12
(c) COc1cc(NS(C)(=O)=O)ccc1Nc1c2ccccc2nc2c(C(=O)NCCN(C)C)cccc12
Thanks in advance: please rank these 3 entries by k0, highest to lowest. I'd appreciate it if you listed the labels in the requested order. c, a, b
(c: 2.45e+07 M⁻¹, a: 890000 M⁻¹, b: 350000 M⁻¹)

###

Tested on: Nucleic Acid
assay.explanation: Free drug λmax in 0.1 SHE buffer at the concentration of 50 uM for equilibrium binding to calf thymus DNA
observation.type: λmax (nm)

COc1cc(NS(C)(=O)=O)ccc1Nc1c2ccccc2nc2c(C(=O)NCCNCCO)cccc12 ... 441
CN(C)CCNC(=O)c1cccc2c(N)c3ccccc3nc12 ... 407
COc1cc(NS(C)(=O)=O)ccc1Nc1c2ccccc2nc2c(C(=O)NCCCN(C)C)cccc12 ... 441
COc1cc(NS(C)(=O)=O)ccc1Nc1c2ccccc2nc2c(C(=O)NCCCO)cccc12 ... 439
Nc1c2ccccc2nc2ccccc12 ... 399
CNC(=O)c1cccc2c(Nc3ccc(NS(C)(=O)=O)cc3OC)c3ccccc3nc12 ... 438
COc1cc(NS(C)(=O)=O)ccc1Nc1c2ccccc2nc2ccccc12 ... 434
COc1cc(NS(C)(=O)=O)ccc1Nc1c2ccccc2nc2c(C(=O)NCC(=O)NCCNCCO)cccc12 ... 440
COc1cc(NS(C)(=O)=O)ccc1Nc1c2ccccc2nc2c(C(=O)NCCN(C)C)cccc12 ... 442
COc1cc(NS(C)(=O)=O)ccc1Nc1c2ccccc2nc2c(C(=O)NCC(O)CO)cccc12 (stereo unspecified) ... 425
COc1cc(NS(C)(=O)=O)ccc1Nc1c2ccccc2nc2c(C(=O)NCCO)cccc12 ... 441

###

System: Nucleic Acid
assay.explanation: Time constant describing the association profile of calf thymus DNA-drug complexes in 0.1 SHE buffer at 20 degree C after 2 min
Assay type: nucleic-acid assay
observation.type: Time constant (ms)

Past entries and their recorded results:
COc1cc(NS(C)(=O)=O)ccc1Nc1c2ccccc2nc2c(C(=O)NCCCO)cccc12 ... 32
COc1cc(NS(C)(=O)=O)ccc1Nc1c2ccccc2nc2c(C(=O)NCCN(C)C)cccc12 ... 24
CNC(=O)c1cccc2c(Nc3ccc(NS(C)(=O)=O)cc3OC)c3ccccc3nc12 ... 7

(I) COc1cc(NS(C)(=O)=O)ccc1Nc1c2ccccc2nc2c(C(=O)NCC(=O)NCCNCCO)cccc12
(II) COc1cc(NS(C)(=O)=O)ccc1Nc1c2ccccc2nc2c(C(=O)NCC(O)CO)cccc12 (stereo not drawn)
Lower value of Time constant belongs to which: I or II ? Your choice should be expressed through its label. I

(A) COc1cc(NS(C)(=O)=O)ccc1Nc1c2ccccc2nc2c(C(=O)NCCO)cccc12
(B) COc1cc(NS(C)(=O)=O)ccc1Nc1c2ccccc2nc2c(C(=O)NCCCN(C)C)cccc12
Lab notebook, comparison: A versus B , higher Time constant goes to which? In your reply, give the label of the chosen option. A
(A: 31 ms, B: 15 ms)
